Listing: relative viability of selected molecules
tested on: NCI-H1734; experiment: relative viability (nuclei count vs DMSO), 5 days (fraction); higher = more cells survive; details: first compound 20 µM
The answer should be a number; do not append a unit.

molecule: COCC1(CO)C(=O)C2CCN1CC2 (stereo unspecified) [PRIMA-1MET] + O=C(c1cc(Cc2n[nH]c(=O)c3ccccc23)ccc1F)N1CCN(C(=O)C2CC2)CC1 [Olaparib] (partner 8 µM)
measuredNumber: 0.0357
//
molecule: COCC1(CO)C(=O)C2CCN1CC2 (stereo unspecified) [PRIMA-1MET] + CS(=O)(=O)N1CCN(Cc2cc3nc(-c4cccc5[nH]ncc45)nc(N4CCOCC4)c3s2)CC1 [Pictilisib] (partner 1 µM)
measuredNumber: 0.0877
//
molecule: COCC1(CO)C(=O)C2CCN1CC2 (stereo unspecified) [PRIMA-1MET] + Cc1nc(NC(=O)N2CCC[C@H]2C(N)=O)sc1-c1ccnc(C(C)(C)C(F)(F)F)c1 [Alpelisib] (partner 2 µM)
measuredNumber: 0.3
//
molecule: COCC1(CO)C(=O)C2CCN1CC2 (stereo unspecified) [PRIMA-1MET] + C[C@@H](Oc1cc(-c2cnn(C3CCNCC3)c2)cnc1N)c1c(Cl)ccc(F)c1Cl [Crizotinib] (partner 1 µM)
measuredNumber: 0.171
//
molecule: COCC1(CO)C(=O)C2CCN1CC2 (stereo unspecified) [PRIMA-1MET] + Cc1nc(Nc2ncc(C(=O)Nc3c(C)cccc3Cl)s2)cc(N2CCN(CCO)CC2)n1 [Dasatinib] (partner 0.075 µM)
measuredNumber: 0.0495
//
molecule: COCC1(CO)C(=O)C2CCN1CC2 (stereo unspecified) [PRIMA-1MET] + Cc1cc(Nc2cc(N3CCN(C)CC3)nc(Sc3ccc(NC(=O)C4CC4)cc3)n2)n[nH]1 [Tozasertib] (partner 0.1 µM)
measuredNumber: 0.0526

Data request: What does the data say about its relative viability? Entry: COCC1(CO)C(=O)C2CCN1CC2 (stereo unspecified) [PRIMA-1MET] + CC(=O)c1c(C)c2cnc(Nc3ccc(N4CCNCC4)cn3)nc2n(C2CCCC2)c1=O [Palbociclib] (partner 0.5 µM)
Data returned: 0.053

Data request: Likewise for COCC1(CO)C(=O)C2CCN1CC2 (stereo unspecified) [PRIMA-1MET] + N=C(N)NC(=N)NCCc1ccccc1 [Phenformin] (partner 250 µM) ?
Data returned: 0.058

Data request: Likewise for COCC1(CO)C(=O)C2CCN1CC2 (stereo unspecified) [PRIMA-1MET] + Nc1nc2[nH]cc(CCc3ccc(C(=O)N[C@@H](CCC(=O)O)C(=O)O)cc3)c2c(=O)[nH]1 [Pemetrexed] (partner 0.2 µM) ?
Data returned: 0.0543

Data request: Likewise for COCC1(CO)C(=O)C2CCN1CC2 (stereo unspecified) [PRIMA-1MET] + Nc1ncn([C@H]2C[C@H](O)[C@@H](CO)O2)c(=O)n1 [Decitabine] (partner 2 µM) ?
Data returned: 0.0575

Data request: Likewise for COCC1(CO)C(=O)C2CCN1CC2 (stereo unspecified) [PRIMA-1MET] + CC(C)C[C@H](NC(=O)[C@H](Cc1ccccc1)NC(=O)c1cnccn1)B(O)O [Bortezomib] (partner 0.002 µM) ?
Data returned: 0.224

###

test system: ChaGo-K-1; assay: relative viability (nuclei count vs DMSO), 5 days (fraction); higher = more cells survive; settings: first compound 0.6325 µM
observedProperty: relative viability
The answer should be a number; do not append a unit.

The following molecules have reported results that may help.
molecule: COCC1(CO)C(=O)C2CCN1CC2 (stereo not given) [PRIMA-1MET] + Nc1nc2[nH]cc(CCc3ccc(C(=O)N[C@@H](CCC(=O)O)C(=O)O)cc3)c2c(=O)[nH]1 [Pemetrexed] (partner 0.2 µM)
observedProperty: relative viability
measuredNumber: 0.261
//
molecule: COCC1(CO)C(=O)C2CCN1CC2 (stereo not given) [PRIMA-1MET] + O=C(c1cc(Cc2n[nH]c(=O)c3ccccc23)ccc1F)N1CCN(C(=O)C2CC2)CC1 [Olaparib] (partner 8 µM)
observedProperty: relative viability
measuredNumber: 0.407
//
molecule: COCC1(CO)C(=O)C2CCN1CC2 (stereo not given) [PRIMA-1MET] + CCNC(=O)c1noc(-c2cc(C(C)C)c(O)cc2O)c1-c1ccc(CN2CCOCC2)cc1 [Luminespib] (partner 0.01 µM)
observedProperty: relative viability
measuredNumber: 0.531
//
molecule: COCC1(CO)C(=O)C2CCN1CC2 (stereo not given) [PRIMA-1MET] + Nc1ncn([C@H]2C[C@H](O)[C@@H](CO)O2)c(=O)n1 [Decitabine] (partner 2 µM)
observedProperty: relative viability
measuredNumber: 0.362

Data request: Provide the documented relative viability with ChaGo-K-1 as the system for COCC1(CO)C(=O)C2CCN1CC2 (stereo not given) [PRIMA-1MET] + Cc1cc(Nc2cc(N3CCN(C)CC3)nc(Sc3ccc(NC(=O)C4CC4)cc3)n2)n[nH]1 [Tozasertib] (partner 0.1 µM)
Data returned: 0.2
